Tested on: SF-295 CNS
METHOD SUMMARY: NCI-60 one-dose screen, 48 h
CONDITION SUMMARY: 10 µM
The panel holds about 83,000 compounds, 20% with a hit somewhere; the sample as a whole holds those more often. The source made the active and inactive calls. How the source made its calls: active means growth percent below 10; inactive means the rest.
In this exercise, the only acceptable responses are active, inactive

1) COc1ccc(-c2nc(-c3nc4cc(Cl)c(Cl)cc4[nH]3)c3ccccn23)cc1 | inactive
2) COc1cc(-c2nc(-c3nnc(-c4ccccc4Cl)o3)c3ccccn23)cc(OC)c1OC | inactive
3) FC(F)(F)c1ccc(-c2cnc(-n3cc(COCCN4CCCCC4)nn3)nc2NC2CCCCCC2)cc1 | active
4) C/C(N)=C(\C#N)C(=O)c1ccccc1 | inactive

Ask: Test call for this molecule, please: Clc1ccc(Nc2ccnc(NCCCNc3ccnc4cc(Cl)ccc34)n2)cc1
Result: active

----------
System: SN12C renal
METHOD SUMMARY: NCI-60 one-dose screen, 48 h
CONDITION SUMMARY: 10 µM
This is part of a sample that, as a whole, favours compounds with a hit. Of some 83,000 tested, about 20% had one in any assay. Active and inactive are the calls of the source. Rule for the calls: active = growth percent below 10; inactive = the rest.
// classify into active, inactive

Example entries begin here.
1) Cc1ccc2oc3nc(C)c(C(=O)NCc4ccccc4)cc3c(=O)c2c1 | inactive
2) NC(=S)N=Nc1c(O)c2ccccc2c2ccccc12 | active
3) COc1ccc(-c2nn(-c3cccc(NC(=O)c4ccc5c(c4)OCCO5)c3)cc2-c2ccncc2)cc1Cl | inactive
4) Cc1ccc(N=Nc2c(N)nc(N)[nH]c2=O)cc1C | inactive

# evaluate next
Ask: How was COc1cc2c(cc1OCCCCCCN1CCN(CC(=O)Nc3ccc(Cl)cc3C(=O)c3ccccc3Cl)CC1)N=CC1CCCN1C2=O (stereo not given) classified in this test?
Result: active

----------
System: COLO 205 colon
METHOD SUMMARY: NCI-60 one-dose screen, 48 h
CONDITION SUMMARY: 10 µM
Compounds without any hit were thinned out: in the full panel of roughly 83,000, 20% have a hit. Activity calls are given as the source filed them. The calls were made as follows: active = growth percent below 10; inactive = the rest.
Log the outcome using a class from true (1) for active, false (0) for inactive

Would you please look over these solved cases?
1. Nc1nc(N)c2c(ccc3nccc32)[nH]1 | false (0)
2. CCCCCCCCCCCCCCCC(=O)OC1[C@@H](OC(=O)CCCCCCCCCCCCCCC)[C@@H](C(=O)N[C@@H](CCCCN)C(=O)OC)O[C@H]1n1cnc2c(=O)[nH]c(NC(=O)C(C)C)nc21 (stereo partly specified) | false (0)
3. CCC(=O)N1C/C(=C/c2ccc(Br)cc2)C(=O)/C(=C/c2ccc(Br)cc2)C1 | true (1)
4. COc1ccc(-c2ccc3cc(C(=O)Nc4ccc(O)c(C(=O)/C=C/c5cc(OC)c(OC)c(OC)c5)c4)ccc3c2)cc1 | false (0)
5. O=C(Nc1ccncc1)C(=O)c1cn(S(=O)(=O)c2cc(Cl)cc(Cl)c2)c2ccccc12 | false (0)
6. CCc1ccc2c(c1)N(CCO)C1=C(C(=O)OC1)C2c1cc(OC)c(OC)c(OC)c1 (stereo unspecified) | true (1)

Ask: Short answer needed: outcome of this test for Cc1c(Cl)cccc1NC(=O)c1sc2nc3c(cc2c1N)C(=O)CCC3 ?
Result: true (1)

Ask: How was Cc1cc(=O)n2nnc3c4ccccc4ccc3n12 classified in this test?
Result: true (1)

Ask: How was Cc1cc(Cl)nc(N(CCCNc2ccnc3cc(Cl)ccc23)Cc2cccs2)n1 classified in this test?
Result: true (1)

Ask: Hi, do you know how O=C(CNC(=O)OCc1ccccc1)NCC(=O)Oc1ccc([N+](=O)[O-])cc1 came out in this test?
Result: false (0)
